System: Staphylococcus aureus
Experiment: Antibacterial activity against methicillin-resistant Staphylococcus aureus
Assay type: functional
test_readout: MIC90 (µg/mL)
Reply with just the number (in µg/mL).

Solved entries (count: 5):
smiles_representation	val
CCc1ccc2c3c1C(=O)C(=O)C(C)=C3OC=C2C	16
CC1=COC2=C(C)C(=O)C(=O)c3c(C)ccc1c32	4
COC(=O)c1ccc2c3c1C(=O)C(=O)C(C)=C3OC=C2C	16
CC1=COC2=C(C)C(=O)C(=O)c3c(CCC(C)C)ccc1c32	16
CC(=O)C1=C2OC=C(C)c3ccc(C)c(c32)C(=O)C1=O	32

Recall and state the measured MIC90 for COc1ccc2c3c1C(=O)C(=O)C(C)=C3OC=C2C . 8

Recall and state the measured MIC90 for CCCCCc1ccc2c3c1C(=O)C(=O)C(C)=C3OC=C2C . 8

Recall and state the measured MIC90 for CC1=COC2=CC(=O)C(=O)c3c(C)ccc1c32 . 16

Recall and state the measured MIC90 for CC1=COC2=C(CBr)C(=O)C(=O)c3c(C)ccc1c32 . 16

Recall and state the measured MIC90 for CCCC1=C2OC=C(C)c3ccc(C)c(c32)C(=O)C1=O . 8

Recall and state the measured MIC90 for CN[C@H](CC(C)C)C(=O)N[C@H]1C(=O)N[C@@H](CC(N)=O)C(=O)N[C@H]2C(=O)N[C@H]3C(=O)N[C@H](C(=O)N[C@H](C(=O)O)c4cc(O)cc(O)c4-c4cc3ccc4O)[C@H](O)c3ccc(c(Cl)c3)Oc3cc2cc(c3O[C@@H]2O[C@H](CO)[C@@H](O)[C@H](O)[C@H]2O[C@H]2C[C@](C)(N)[C@H](O)[C@H](C)O2)Oc2ccc(cc2Cl)[C@H]1O . 2

Recall and state the measured MIC90 for COC(=O)C1=C2OC=C(C)c3ccc(C)c(c32)C(=O)C1=O . 32

Recall and state the measured MIC90 for CC1=COC2=C(Br)C(=O)C(=O)c3c(C)ccc1c32 . 16

Recall and state the measured MIC90 for CC1=COC2=C(C)C(=O)C(=O)c3cccc1c32 . 8

Recall and state the measured MIC90 for CCCCc1ccc2c3c1C(=O)C(=O)C(C)=C3OC=C2C . 0.5

Recall and state the measured MIC90 for CC1=COC2=C(C)C(=O)C(=O)c3c(C(C)C)ccc1c32 . 16

Recall and state the measured MIC90 for CCCCCCc1ccc2c3c1C(=O)C(=O)C(C)=C3OC=C2C . 16

Recall and state the measured MIC90 for CCCc1ccc2c3c1C(=O)C(=O)C(C)=C3OC=C2C . 4
